Biological target: Kappa-type opioid receptor (Homo sapiens) (UniProt P41145)
Sequence (P41145 whole entry): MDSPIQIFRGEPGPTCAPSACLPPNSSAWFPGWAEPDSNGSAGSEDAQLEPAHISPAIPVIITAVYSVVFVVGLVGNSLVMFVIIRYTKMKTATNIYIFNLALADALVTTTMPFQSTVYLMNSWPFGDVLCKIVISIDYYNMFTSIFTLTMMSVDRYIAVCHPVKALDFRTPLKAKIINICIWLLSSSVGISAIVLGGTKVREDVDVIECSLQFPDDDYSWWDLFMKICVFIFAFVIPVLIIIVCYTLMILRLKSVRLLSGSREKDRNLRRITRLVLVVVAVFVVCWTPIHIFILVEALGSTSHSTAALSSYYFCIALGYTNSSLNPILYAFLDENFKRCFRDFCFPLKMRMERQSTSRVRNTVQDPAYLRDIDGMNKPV
Experiment: Inhibition of human recombinant KOP receptor at 10 uM by radioligand binding assay
Active and inactive are the calls of the source. The rule behind the calls is not given here.
Select the matching outcome among active, inactive

Solved cases (2 shown):
Cc1cc(C(N)=O)ccc1-c1c(CCC(=O)O)ccn1-c1ccc(-n2ccnc2)cc1	inactive
COc1ccc(-c2ccn(-c3ccc(O)c([N+](=O)[O-])c3)c2-c2ccc(C(N)=O)cc2C)cc1	active

Data request: Any idea what this test logged for Cc1cc(C(N)=O)ccc1-n1c(CCC(=O)O)ccc1-c1ccc(-n2ccnc2)cc1 ?
Data returned: inactive

Data request: Any idea what this test logged for Cc1cc(C(N)=O)ccc1-c1c(-c2ccc(-n3ccnc3)cc2)ccn1CCC(=O)O ?
Data returned: inactive

Data request: Any idea what this test logged for COc1ccc(-c2ccn(-c3ccc(C(=O)O)c(O)c3)c2-c2ccc(C(N)=O)cc2C)cc1 ?
Data returned: active

----------
Target: D(2) dopamine receptor (Homo sapiens) (UniProt P14416)
Sequence (P14416 whole entry): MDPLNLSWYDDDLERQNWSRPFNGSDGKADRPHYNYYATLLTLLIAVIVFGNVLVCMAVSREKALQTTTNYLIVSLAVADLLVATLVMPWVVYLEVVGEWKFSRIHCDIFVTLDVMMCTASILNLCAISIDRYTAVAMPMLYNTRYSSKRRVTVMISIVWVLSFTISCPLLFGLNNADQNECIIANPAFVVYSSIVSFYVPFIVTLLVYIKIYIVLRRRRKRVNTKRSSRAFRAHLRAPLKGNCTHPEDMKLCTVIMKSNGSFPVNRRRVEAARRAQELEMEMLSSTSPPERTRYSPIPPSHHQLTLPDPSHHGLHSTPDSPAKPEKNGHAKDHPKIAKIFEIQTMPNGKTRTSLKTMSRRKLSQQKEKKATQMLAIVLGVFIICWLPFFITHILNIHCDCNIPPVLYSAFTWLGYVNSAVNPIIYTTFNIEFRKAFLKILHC
Assay: Inhibition of human recombinant D2S receptor at 10 uM by radioligand binding assay
Calls of active or inactive are those of the source. The calls are words filed in the database; no cut-off is given here.
Select the matching outcome among y for active, n for inactive

Solved cases (4 shown):
COc1ccc(-c2ccn(-c3ccc(C(=O)O)c(O)c3)c2-c2ccc(C(N)=O)cc2C)cc1	y
Cc1cc(C(N)=O)ccc1-n1c(CCC(=O)O)ccc1-c1ccc(-n2ccnc2)cc1	n
Cc1cc(C(N)=O)ccc1-c1c(-c2ccc(-n3ccnc3)cc2)ccn1CCC(=O)O	n
Cc1cc(C(N)=O)ccc1-c1c(CCC(=O)O)ccn1-c1ccc(-n2ccnc2)cc1	n

In the following, a different compound is considered.
Data request: Any idea what this test logged for COc1ccc(-c2ccn(-c3ccc(O)c([N+](=O)[O-])c3)c2-c2ccc(C(N)=O)cc2C)cc1 ?
Data returned: y

----------
Target: Muscarinic acetylcholine receptor M3 (Homo sapiens) (UniProt P20309)
Sequence (P20309 whole entry, looked up): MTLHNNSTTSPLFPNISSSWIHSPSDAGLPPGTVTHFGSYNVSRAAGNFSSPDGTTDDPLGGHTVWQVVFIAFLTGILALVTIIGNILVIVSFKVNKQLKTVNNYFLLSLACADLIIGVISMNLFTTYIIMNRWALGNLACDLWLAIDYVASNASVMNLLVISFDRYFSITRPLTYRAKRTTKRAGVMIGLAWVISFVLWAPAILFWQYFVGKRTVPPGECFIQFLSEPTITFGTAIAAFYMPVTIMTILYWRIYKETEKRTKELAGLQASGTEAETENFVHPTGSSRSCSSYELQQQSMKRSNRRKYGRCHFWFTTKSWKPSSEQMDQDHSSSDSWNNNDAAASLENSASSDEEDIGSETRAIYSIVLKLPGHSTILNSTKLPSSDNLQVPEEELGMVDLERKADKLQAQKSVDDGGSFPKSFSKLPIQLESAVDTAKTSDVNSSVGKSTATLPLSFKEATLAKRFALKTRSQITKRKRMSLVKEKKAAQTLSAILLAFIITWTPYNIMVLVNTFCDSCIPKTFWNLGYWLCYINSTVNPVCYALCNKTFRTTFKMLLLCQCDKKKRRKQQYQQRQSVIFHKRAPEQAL
Experiment: Inhibition of human recombinant M3 receptor at 10 uM by radioligand binding assay
Calls of active or inactive are those of the source. No cut-off for these calls is given here.
Select the matching outcome among 1.0 for active, 0.0 for inactive

Solved cases (4 shown):
Cc1cc(C(N)=O)ccc1-c1c(-c2ccc(-n3ccnc3)cc2)ccn1CCC(=O)O	0.0
Cc1cc(C(N)=O)ccc1-n1c(CCC(=O)O)ccc1-c1ccc(-n2ccnc2)cc1 [N6022]	0.0
COc1ccc(-c2ccn(-c3ccc(O)c([N+](=O)[O-])c3)c2-c2ccc(C(N)=O)cc2C)cc1	1.0
COc1ccc(-c2ccn(-c3ccc(C(=O)O)c(O)c3)c2-c2ccc(C(N)=O)cc2C)cc1	1.0

Data request: Any idea what this test logged for Cc1cc(C(N)=O)ccc1-c1c(CCC(=O)O)ccn1-c1ccc(-n2ccnc2)cc1 ?
Data returned: 0.0

----------
Target: Adrenergic receptor alpha-1 (Homo sapiens) (UniProt P35348+P25100+P35368)
Experiment: Inhibition of human recombinant alpha1 receptor at 10 uM by radioligand binding assay
Active and inactive are the calls of the source. The rule behind the calls is not given here.
Select the matching outcome among true (1) = active, false (0) = inactive

COc1ccc(-c2ccn(-c3ccc(C(=O)O)c(O)c3)c2-c2ccc(C(N)=O)cc2C)cc1	true (1)

In the following, a different molecule is considered.
Data request: Any idea what this test logged for Cc1cc(C(N)=O)ccc1-c1c(-c2ccc(-n3ccnc3)cc2)ccn1CCC(=O)O ?
Data returned: false (0)

----------
Experiment: Inhibition of GSNOR expressed in Escherichia coli using GSNO by cuvette method
Recorded IC50 by entry
Give just the numeric value; µM need not be written.

COc1ccc(-c2ccn(C(C)CC(=O)O)c2-c2ccc(C(N)=O)cc2C)cc1 (centres undefined)	14.1
COc1ccc(-c2ccn(-c3ccc(O)nc3)c2-c2ccc(C(N)=O)cc2C)cc1	21.6
COc1ccc(-c2ccn(CC(O)C(=O)O)c2-c2ccc(C(N)=O)cc2C)cc1 (centres undefined)	23.5
COc1ccc(-c2ccn(-c3ccc(C(=O)O)nc3)c2-c2ccc(C(N)=O)cc2C)cc1	8.53
COc1ccc(-c2ccn(-c3ccc(O)c(F)c3)c2-c2ccc(C(N)=O)cc2C)cc1	0.46

Consider COc1ccc(-c2ccn(-c3ccc(O)c(C(=O)O)c3)c2-c2ccc(C(N)=O)cc2C)cc1 . Its measured IC50 is 0.41

Consider COc1ccc(-c2ccn(-c3ccc(S(N)(=O)=O)cc3)c2-c2ccc(C(N)=O)cc2C)cc1 . Its measured IC50 is 28.4

Consider COc1ccc(-c2ccn(-c3ccc(C(=O)O)c(F)c3)c2-c2ccc(C(N)=O)cc2C)cc1 . Its measured IC50 is 1.57

Consider COc1ccc(-c2ccn(-c3ccc(C(=O)O)c(O)c3)c2-c2ccc(C(N)=O)cc2C)cc1 . Its measured IC50 is 0.28

Consider COc1ccc(-c2ccn(-c3cc(F)c(O)c(F)c3)c2-c2ccc(C(N)=O)cc2C)cc1 . Its measured IC50 is 0.45

Consider CCCC(CC(=O)O)n1ccc(-c2ccc(OC)cc2)c1-c1ccc(C(N)=O)cc1C (centres undefined) . Its measured IC50 is 63.7

Consider COc1ccc(-c2ccn(CC3(C(=O)O)CC3)c2-c2ccc(C(N)=O)cc2C)cc1 . Its measured IC50 is 8.09

Consider COc1ccc(-c2ccn(C(CC(=O)O)C(C)C)c2-c2ccc(C(N)=O)cc2C)cc1 (centres undefined) . Its measured IC50 is 97.2

Consider COc1ccc(-c2ccn(-c3ccc(O)cn3)c2-c2ccc(C(N)=O)cc2C)cc1 . Its measured IC50 is 3.02

Consider COc1ccc(-c2ccn(CC(C)C(=O)O)c2-c2ccc(C(N)=O)cc2C)cc1 (centres undefined) . Its measured IC50 is 1.97

Consider COc1ccc(-c2ccn(-c3ccc(O)c([N+](=O)[O-])c3)c2-c2ccc(C(N)=O)cc2C)cc1 . Its measured IC50 is 0.19

----------
Molecular target: D(1A) dopamine receptor (Homo sapiens) (UniProt P21728)
Sequence (P21728 whole entry): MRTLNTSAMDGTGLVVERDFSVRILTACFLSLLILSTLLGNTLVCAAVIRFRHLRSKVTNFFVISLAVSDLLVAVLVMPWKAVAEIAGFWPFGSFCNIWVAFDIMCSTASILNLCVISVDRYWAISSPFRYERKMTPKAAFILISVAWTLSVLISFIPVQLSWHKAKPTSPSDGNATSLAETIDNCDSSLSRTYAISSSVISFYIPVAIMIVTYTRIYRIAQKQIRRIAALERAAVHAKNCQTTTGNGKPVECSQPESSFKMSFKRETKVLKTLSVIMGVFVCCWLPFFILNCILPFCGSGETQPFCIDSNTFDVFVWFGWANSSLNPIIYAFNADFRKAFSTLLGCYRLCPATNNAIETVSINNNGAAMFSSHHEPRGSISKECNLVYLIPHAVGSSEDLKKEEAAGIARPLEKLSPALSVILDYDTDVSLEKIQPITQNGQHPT
Experiment: Inhibition of human recombinant D1 receptor at 10 uM by radioligand binding assay
Activity calls are given as the source filed them. The rule behind the calls is not given here.
Select the matching outcome among active, inactive

Solved cases (3 shown):
Cc1cc(C(N)=O)ccc1-c1c(-c2ccc(-n3ccnc3)cc2)ccn1CCC(=O)O	inactive
Cc1cc(C(N)=O)ccc1-n1c(CCC(=O)O)ccc1-c1ccc(-n2ccnc2)cc1 [N6022]	inactive
COc1ccc(-c2ccn(-c3ccc(O)c([N+](=O)[O-])c3)c2-c2ccc(C(N)=O)cc2C)cc1	active

Data request: Any idea what this test logged for COc1ccc(-c2ccn(-c3ccc(C(=O)O)c(O)c3)c2-c2ccc(C(N)=O)cc2C)cc1 ?
Data returned: active

Data request: Any idea what this test logged for Cc1cc(C(N)=O)ccc1-c1c(CCC(=O)O)ccn1-c1ccc(-n2ccnc2)cc1 ?
Data returned: inactive

----------
Target: Muscarinic acetylcholine receptor M1 (Homo sapiens)
Experiment: Inhibition of human recombinant M1 receptor at 10 uM by radioligand binding assay
The source made the active and inactive calls. The calls are words filed in the database; no cut-off is given here.
reported metric: inhibition

COc1ccc(-c2ccn(-c3ccc(O)c([N+](=O)[O-])c3)c2-c2ccc(C(N)=O)cc2C)cc1	Active
COc1ccc(-c2ccn(-c3ccc(C(=O)O)c(O)c3)c2-c2ccc(C(N)=O)cc2C)cc1	Active

----------
Target: Adrenergic receptor alpha-1 (Homo sapiens) (UniProt P35348+P25100+P35368)
Test: Inhibition of human recombinant alpha1 receptor at 10 uM by radioligand binding assay
Calls of active or inactive are those of the source. No cut-off for these calls is given here.
Select the matching outcome among active, inactive

COc1ccc(-c2ccn(-c3ccc(O)c([N+](=O)[O-])c3)c2-c2ccc(C(N)=O)cc2C)cc1	active
Cc1cc(C(N)=O)ccc1-c1c(CCC(=O)O)ccn1-c1ccc(-n2ccnc2)cc1	inactive

In the following, a different compound is considered.
Data request: Any idea what this test logged for Cc1cc(C(N)=O)ccc1-n1c(CCC(=O)O)ccc1-c1ccc(-n2ccnc2)cc1 [N6022] ?
Data returned: inactive

----------
Experiment: Inhibition of GSNOR expressed in Escherichia coli using GSNO by cuvette method
reported metric: IC50

Example entries begin here.
COc1ccc(-c2ccn(C3CCC(C(=O)O)CC3)c2-c2ccc(C(N)=O)cc2C)cc1 (stereo not drawn)	> 100 µM
COc1ccc(-c2ccn(C(CC(=O)O)C3CC3)c2-c2ccc(C(N)=O)cc2C)cc1 (stereo not drawn)	> 100 µM

Consider COc1ccc(-c2ccn(CC(N)C(=O)O)c2-c2ccc(C(N)=O)cc2C)cc1 (stereo not drawn) . Its measured IC50 is > 100 µM
